assay: Quantitative High-Throughput drug screen in 47 multiple myeloma cell lines against the NCATS MIPE library collection: L363_DSMZ cell viability assay (AID 1918984); conditions: L363 myeloma viability, CellTiter-Glo ATP luminescence, 48 h; series mostly up to 45.8 µM; also: nearly all actives have a fitted effect of over 40% in size
Inconclusive results are not listed. Active and inactive are the calls of the source. Calls follow the shape of the dose curve; as a rule, active = well fitted cell-killing curve with a large enough effect; inconclusive = small, poorly fitted or top-dose-only effect, or effect the other way; inactive = no such curve, though single readings can be large or run the other way.
Labels: active, inactive

compound	assignedLabel
COc1cc2c(Nc3ccc(Cl)c(Cl)c3F)ncnc2cc1OCC1C[C@@H]2CN(C)C[C@H]2C1	active
Cc1cnc(Nc2ccc(N3CCN(C)CC3)cc2)nc1Nc1cccc(S(=O)(=O)NC(C)(C)C)c1	active
OCCN1C[C@H](O)[C@@H](O)[C@H](O)[C@@H]1CO	inactive
C#C[C@]1(O)CC[C@@H]2[C@@H]3CCC4=CC(=O)CC[C@@H]4[C@H]3CC[C@@]21CC	active
COc1cc(O)c2c(c1)C1OC1C[C@H](O)[C@H](O)C(=O)C=CC[C@H](C)OC2=O (some centres undefined)	active
C=CC(=O)N1CCc2ccc(-n3c(=O)ccc4cnc5ccc(-c6cnn(C)c6)cc5c43)cc21	active
COc1cc(C=CC(=O)CC(=O)C=Cc2ccc(O)c(OC)c2)ccc1O	active
O=C(C=Cc1ccc(CN(CCO)CCc2c[nH]c3ccccc23)cc1)NO	active
Cn1cc(C=CC(=O)c2cccc(F)c2)cc1C=CC(=O)NO	active

Taken from PubChem BioAssay (NCATS).
